FYI, the data here is from PubChem BioAssay (NCI).

# System: OVCAR-5 ovarian
# PROTOCOL: NCI tumour cell line growth inhibition, 48 h
MEASUREMENT_NAME: GI50

// known answers, use as guide
[
  {
    "COMPOUND": "C/C=C(\\C)C(=O)O[C@H]1C=CC(=O)O[C@H]1CNC(=O)[C@H](C)O",
    "GI50": "19.9 µM"
  },
  {
    "COMPOUND": "N.N.NC(CS)C(=O)[O-].NC(CS)C(=O)[O-].[Pt+4] (stereo unspecified)",
    "GI50": "> 50 µM"
  },
  {
    "COMPOUND": "CC1=Cc2cc3[n-]c(cc4nc(cc5[n-]c(cc1n2)cc5C)C(C)=C4CCC(=O)O)c(CCC(=O)O)c3C.[Pd+2]",
    "GI50": "41.6 µM"
  },
  {
    "COMPOUND": "O=C1OC(=O)C2C1C1(c3ccccc3)C(c3ccccc3)=C(c3ccccc3)C2(c2ccccc2)S1=O (stereo unspecified)",
    "GI50": "> 100 µM"
  },
  {
    "COMPOUND": "COc1cc(/C=C/C(=O)c2ccc(Cl)cc2)ccc1OS(=O)(=O)c1ccc(C)cc1",
    "GI50": "16.7 µM"
  },
  {
    "COMPOUND": "CC[N+](CC)(CC)CCCn1c2c(c3ccccc3c1=O)C(=O)c1ccccc1-2",
    "GI50": "16.5 µM"
  }
]

Query string: I would be grateful if you could share the reported GI50 for CCN(CC)CCOc1ccc(/C=C2\CC3C4CC=C5C[C@@H](N6CCCC6)CC[C@]5(C)C4CC[C@]3(C)[C@H]2O)cc1OC (stereo partly specified) .
Result string: 24 µM

====

# System: KM12 colon
# PROTOCOL: NCI tumour cell line growth inhibition, 48 h; in the data active = GI50 below about 0.43 µM; inactive = the rest
Please answer using one outcome listed in active, inactive

[
  {
    "MOLECULE": "O=c1cc(-c2ccccc2)nc2n1CCN2Cc1ccccc1",
    "DISCRETE_LABEL": "inactive"
  },
  {
    "MOLECULE": "O=C([CH-]C(=O)c1ccccc1)c1ccccc1.O=C([CH-]C(=O)c1ccccc1)c1ccccc1.[Nd+3].[OH-].[OH3+]",
    "DISCRETE_LABEL": "inactive"
  },
  {
    "MOLECULE": "C[C@H]1CCC/C=C/[C@@H]2C[C@H](O)C[C@H]2[C@H](O)[C@@H](S(=O)CCN(C)C)CC(=O)O1 (stereo not given in full)",
    "DISCRETE_LABEL": "active"
  },
  {
    "MOLECULE": "S=C(Nc1ccc(Cl)cc1)Nc1ccc(-c2nc3ccccc3[nH]2)cc1",
    "DISCRETE_LABEL": "inactive"
  }
]

Pending molecule:
Query string: Field: outcome | Entry: CC(NNC(=S)N1CCCCCC1)c1ccc2ccccc2n1 (stereo not given)
Result string: inactive

====

# Tested on: M14 melanoma
# PROTOCOL: NCI tumour cell line growth inhibition, 48 h
MEASUREMENT_NAME: TGI

// known answers, use as guide
[
  {
    "MOLECULE": "COC(=O)N/N=C/c1oc(-c2cccc([N+](=O)[O-])c2)c(-c2cccc([N+](=O)[O-])c2)c1[N+](=O)[O-]",
    "RESULT": "> 100 µM"
  },
  {
    "MOLECULE": "CC1(C)COC(/C=C/C2=NC(C)(C)CO2)=N1",
    "RESULT": "31.4 µM"
  },
  {
    "MOLECULE": "COC(=O)c1nc(NC#N)[nH]c(=O)c1C",
    "RESULT": "> 100 µM"
  },
  {
    "MOLECULE": "COc1cccc(-c2cc(=O)c3cc(N)ccc3[nH]2)c1",
    "RESULT": "> 100 µM"
  },
  {
    "MOLECULE": "C=C1C(=O)O[C@H]2[C@H]1CC/C(Cn1cc(-c3ccccc3)nn1)=C\\CC[C@@]1(C)O[C@@H]21",
    "RESULT": "7.6 µM"
  },
  {
    "MOLECULE": "O=C(Nc1ncc(Cc2ccccc2Cl)s1)c1ccc2c(c1)OCCO2",
    "RESULT": "14.5 µM"
  }
]

Query string: I would be grateful if you could share the reported TGI for CC(=O)OC1COC(n2c(N)c(C#N)c(C)c(C#N)c2=S)C(OC(C)=O)C1OC(C)=O (stereo not drawn) .
Result string: > 100 µM

Query string: Next record, please: CC(=O)OCC1OC(n2c(=O)n(-c3ccccc3)c(=O)c3ccccc32)C(OC(C)=O)C(OC(C)=O)C1OC(C)=O (stereo not drawn)
Result string: > 100 µM

Query string: Next record, please: `CNC(=O)CCNC(=O)CCC(=O)OC`
Result string: > 100 µM

Query string: Next record, please: `Cc1cc(S(=O)(=O)Nc2nnc(-c3ccccc3)c(-c3ccccc3)n2)c(SCc2ccccc2)cc1Cl`
Result string: 42.1 µM

Query string: Next record, please: `C=C(CN1CCc2ccccc2C1)c1ccc(C(=O)Nc2ccc(N)cc2)cc1`
Result string: 65.6 µM

Query string: Next record, please: `O=C(CCCn1ccnc1[N+](=O)[O-])NCCn1ccnc1`
Result string: > 100 µM

Query string: Next record, please: `O=c1cc(-c2ccccc2)nc2n1CCN2Cc1ccccc1`
Result string: > 100 µM

====

# System: HS 578T breast
# PROTOCOL: NCI tumour cell line growth inhibition, 48 h
// reported TGI per item

[
  {
    "COMPOUND": "Cc1ccc2c(=O)c3cccc(CC(=O)O)c3oc2c1C",
    "TARGET_DESC": "HS 578T breast",
    "TGI": "> 100 µM"
  }
]

Query string: I would be grateful if you could share the reported TGI for `CCCCCc1c2nc(c(CCCCC)c3ccc([nH]3)c(CCCCC)c3ccc([nH]3)c(CCCCC)c3nc1C=C3)C=C2` .
Result string: > 100 µM

Query string: Next record, please: `Cc1ccc(S(=O)(=O)NNC(=S)Nc2cccc3ccccc23)cc1`
Result string: > 100 µM

Query string: Next record, please: `O=S(=O)(O)c1c(N=Nc2c(O)ccc3ccccc23)ccc2ccccc12`
Result string: > 100 µM

Query string: Next record, please: `Cc1c2c(n(CCc3ccccc3)c1C)NN=C(C#N)S2(=O)=O`
Result string: > 100 µM

Query string: Next record, please: COC(=O)C(Nc1ccc(OC)cc1)c1ccccc1 (stereo not drawn)
Result string: > 100 µM

Query string: Next record, please: `Cc1[nH]c(/C=C2\C(=O)Nc3ccc(F)cc32)c(C)c1C(=O)NC[C@H](O)CN1CCOCC1`
Result string: > 10 µM

====

# System: XF 498 CNS
# PROTOCOL: NCI tumour cell line growth inhibition, 48 h
// reported TGI per item

[
  {
    "MOLECULE": "COc1ccc2ccc([Se]c3ccc4ccc(OC)cc4c3)cc2c1",
    "RESULT": "> 100 µM"
  }
]

Kindly consider the entry below.
Query string: I would be grateful if you could share the reported TGI for `CC1=Cc2cc3[n-]c(cc4nc(cc5[n-]c(cc1n2)cc5C)C(C)=C4CCC(=O)O)c(CCC(=O)O)c3C.[Pd+2]` .
Result string: 31.5 µM

====

# System: NCI-H460 lung
# PROTOCOL: NCI tumour cell line growth inhibition, 48 h
// reported TGI per item

// known answers, use as guide
[
  {
    "COMPOUND": "COC(=O)[C@H](Cc1ccccc1)NC(=O)N1CCN(C(=O)N[C@@H](Cc2ccccc2)C(=O)OC)CCN(C(=O)N[C@@H](Cc2ccccc2)C(=O)OC)CC1",
    "RESULT": "> 100 µM"
  },
  {
    "COMPOUND": "NC1CC(=O)c2cc(Br)sc21 (stereo not drawn)",
    "RESULT": "> 100 µM"
  }
]

Kindly consider the entry below.
Query string: I would be grateful if you could share the reported TGI for CCN(CC)CCS(=O)c1c2cc(OC)ccc2nc2ccc(OC)cc12 (stereo not drawn) .
Result string: > 82.2 µM

====

# Tested on: SR leukemia
# PROTOCOL: NCI tumour cell line growth inhibition, 48 h
// reported TGI per item

// known answers, use as guide
[
  {
    "SMILES_STR": "C=C1CC[C@@H]2C(C)(C)CCC[C@@]2(C)[C@@H]1Cc1cc(O)ccc1O",
    "MEASUREMENT_NAME": "TGI",
    "RESULT": "12.1 µM"
  },
  {
    "SMILES_STR": "COc1ccc2c3ccc4c(c3n(C)c2c1)C(=O)c1ccccc1C4=O",
    "MEASUREMENT_NAME": "TGI",
    "RESULT": "> 100 µM"
  }
]

Query string: # query: TGI | item `CC1(C)C(=O)N=C(N)N1C(=O)OCc1ccccc1` | system: SR leukemia
Result string: > 100 µM
